Molecular target: T1, SNAP-GAL2R L169^ECL2A (human, UniProt O43603 1-387, L169^ECL2A, Lumi4-Tb on the SNAP tag)
T1 construct: also called L169A; source: HEK293, transfected, on cells; not shown: SNAP tag, N-terminal, kept
T1 sequence (looked up): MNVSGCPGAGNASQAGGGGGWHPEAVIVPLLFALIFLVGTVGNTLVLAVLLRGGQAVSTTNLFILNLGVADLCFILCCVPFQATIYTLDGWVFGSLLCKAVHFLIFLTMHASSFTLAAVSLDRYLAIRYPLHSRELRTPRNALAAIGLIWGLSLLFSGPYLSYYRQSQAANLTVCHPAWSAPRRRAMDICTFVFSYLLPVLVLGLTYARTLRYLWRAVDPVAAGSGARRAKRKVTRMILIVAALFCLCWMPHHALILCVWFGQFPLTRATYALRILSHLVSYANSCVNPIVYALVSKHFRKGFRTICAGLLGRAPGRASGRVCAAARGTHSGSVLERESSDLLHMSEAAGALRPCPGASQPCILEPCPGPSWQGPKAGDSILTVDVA
Assay: AlphaScreen or HTRF; saturation binding: HEK293 cells transfected with SNAP-tagged receptor (WT or mutant) and labelled with SNAP-Lumi4-Tb, incubated with increasing concentrations of galanin-A2 in the presence or absence of 100 uM unlabeled galanin, 1 h at room temperature; HTRF ratio 665 nm/620 nm
Conditions: one partner purified
PROPERTY NAME: Kd

GWTLNSAGYLLGPHAVGNHRSFSDKNGLTSC (dye A2 on the additional C-terminal cysteine, numbers count on: the mature protein; additional cysteine at the C-terminal end of the peptide, carries the dye A2; source: synthetic peptide (synthesized by Vazyme, China)) :: 86.2 nM
